Provenance of the data: patent US20130266566A1

molecular target: cynomolgus PAI-1 (cynomolgus, UniProt P05121 24-402 (human entry), limits assumed); test: cell-based or functional assay
Collected Chromogenic (IC50 in nM) cyno values appear next to each entry.
Give just the numeric value; nM need not be written.

binder	Chromogenic (IC50 in nM) cyno
Antibody 27 scFv (scFv) QVQLQQSGAEVKKPGSSVKVSCKASGGAFSSYAISWVRQAPGQGLEWMGGIIPTFGTANYAQKFQGRVTITADESTSTAYMELSGLRSEDTAVYYCAREKRQWLEGHFDYWGRGTPVTVSSDIQMTQSPSFLSASIGDRVTITCRASEGIYHNLAWYQQKPGKAPKLLIYRASSLASGAPSRFSGSGSGTDFTLTISSLQPDDFATYYCQQYSNYPLTFGGGTKLEIK	2.2
Antibody 03 scFv (scFv) QVQLQQSGAEVKKPGSSVKVSCKASGGTFSSYAISWVRQAPGQGLEWMGGIIPTFGTANYAQKFQGRVTITADESTSTAYMELSGLRSEDTAVYYCAREKRQWLEGHFDYWGRGTPVTVSSDIQMTQSPSFLSASIGDRVTITCRASEGIYRSLAWYQQKPGKAPKLLIYKASSLASGAPSRFSGSGSGTDFTLTISGLQPDDFATYYCQQYSNYPLTFGGGTKLEIK	0.1
Antibody 24 scFv (scFv) QVQLQQSGAEVKKPGSSVKVSCKASGGTFSSYAISWVRQAPGQGLEWMGGIIPTFVTANYAQKFQGRVSITADESTSTAYMELSGLRSEDTAVYYCAREKRQWLEGHFDYWGRGTPVTVSSDIQMTQSPSFLSASIGDRVTITCRASEGIYHALAWYQQKPGKAPKLLIYRASSLASGAPSRFSGSGSGTDFTLTISSLQPDDFATYYCQQYSNYPLTFGGGTKLEIK	1.1
Antibody 04 scFv (scFv) QVRLQQSGAEVKKPGSSVKVSCKASGGTFSSYAISWVRQAPGQGLEWMGGIIPTFGTANYAQKFRGRVTITANESTSTAYMELSGLRSEDTAVYYCAREKRQWLEGRFDYWGRGTLVTVSSDIQMTQSPSFLSASIGDRITITCRASEGIYHSLAWYQQKPGKAPKLLIHRATSLASGTPSRFGGSGSGTDFALTISSLQPDDFATYYCQQYSNYPLTFGGGTKLEIK	2.1
Antibody 12 scFv (scFv) QVQLQQSGAEVKKPGSSVKVSCKASGGTFSSYAISWVRQAPGQGLEWMGGIIPTFPTANYAQKFQGRVTITADESTSTAYMELSGLRSEDTAVYYCAREKRQWLEGHFDYWGRGTPVTVSSDIQMTQSPSFLSASIGDRVTITCRASEGIYHNLAWYQQKPGKAPKLLIYRASSLASGAPSRFSGSGSGTDFTLTISSLQPDDFATYYCQQYSNYPLTFGGGTKLEIK	0.6
Antibody 02 scFv (scFv) QVQLVQSGAEVKKPGSSVKVSCKASGGTFSSYAISWVRQAPGQGLEWMGGIIPTFGTANYAQKFQGRVTITADESTSTAYMELSSLRSEDTAVYYCAREKRQWLEGHFDYWGRGTLVTVSSDIQMTQSPSTLSASVGDRVTITCRASEGIYHSLAWYQQKPGKAPKLLIYKASSLASGVPSRFSGSGSGTEFTLTISSLQPDDFATYYCQQYSDYPLTFGGGTKVEIK	1.1
Antibody 21 scFv (scFv) PVQLQQSGAEVKKPGSSVKVSCKASGGTFSSYAISWVRQAPGQGLEWMGGIIPTFGTANYAQKFQGRVTITADESTSTAYMELSGLRSEDTAVYYCAREKRQWLEGHFDYWGRGTPVTVSSDIQMAQSPSFLSASIGDRVTITCRASEGIYHNLAWYQQKPGKAPKLLIYRASSLASGAPSRFSGSGSGTDFTLTISSLQPDDFATYYCQQYSNYPLTFGGGTKLEIK	1.6
Antibody 08 scFv (scFv) QVQLVQSGAEVKKPGSSVKVSCKASGGTFSSYAISWVRQAPGQGLEWMGGIIPTFGTANYAQKFQGRVTITADESTSTAYMELSSLRSEDTAVYYCARERRQWLEGHFDYWGRGTLVTVSSDIQMTQSPSTLSASVGDRVTITCRASEGIYHNLAWYQQKPGKAPKLLIYKASSLASGVPSRFSGSRSGTEFTLTISSLQPDDFATYYCQQYSNYPLTFGGGTKVEIK	1
Antibody 15 scFv (scFv) QVQLQQSGAEVKKPGSSVKVSCKASGGTFSSYAISWVRQAPGQGLEWMGGIIPTFGTANYAQKFQGRVTITADESTSTAYMELSGLRSEDTAVYYCAREKRQWLEGHFDYWGRGTPVTVSSDIQMAQSPSFLSASIGDRVTITCRASEGIYHNLAWYQQKPGKAPKLLIYRASSLASGAPSRFSGSGSGTDFTLTISSLQPDDFATYYCQQYSNYPLTFGGGTKLEIR	2.2

Proceed to the following item.
QUERY: Query (binder): Antibody 07 scFv (scFv) QVQLQQSGAEVKKPGSSVKVSCKASGGTFSSYAISWVRQAPGQGLEWVGGIIPTFGTANYAQKFQGRVTITADESTSTAYMELSGLRSEDTAVYYCAREKRQWLEGHFDYWGRGTPVTVSSDIQMAQSPSFLSASIGDRVTITCRASEGIYHELAWYQQKPGKAPKLLIYRASSLASGAPSRFSGSGSGTDFTLTISSLQPDDFATYYCQQYSNYPLTFGGGTKLEIK ; field requested: Chromogenic (IC50 in nM) cyno
RESULT: 117
